Experiment: NCI Yeast Anticancer Drug Screen. Data for the rad50 strain (AID 155);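 note: 0% = growth of vehicle-only cultures of the same strain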
Settings: S. cerevisiae rad50 strain growth inhibition; at 50.0 µM (retest, dose inferred, filed as 5.0)
Protocol: Growth inhibition of yeast strains with defined genetic alterations is measured as a screen for potential anti-cancer activity. Selected strains with alterations in DNA damage repair or cell cycle control were exposed to compounds and growth inhibition was measured relative to vehicle treated controls. The strain used in this assay is rad50
About 79,000 compounds went through this panel and 15% of them were active in at least one assay; those are over-represented in the sample as a whole. Active and inactive are the calls of the source. Cut-off read from the data, not from the text of the source: active = growth inhibition above about 70%; inactive = the rest.
Possible outcomes: YES (active), NO (inactive)

[[record]]
molecule = "CC(CCNCCC#N)CC(C)(C)C (stereo unspecified)"
label = "NO"

[[record]]
molecule = "COC(=O)c1c(C)cccc1C(=O)c1ccc(C)cc1C"
label = "NO"

[[record]]
molecule = "COc1ccc(/C=C/c2c[n+]([O-])ccc2[N+](=O)[O-])cc1"
label = "YES"

[[record]]
molecule = "CCCCCC(CCCCC)C(=O)O"
label = "NO"

[[record]]
molecule = "Oc1c(Cl)cc(Cl)c2cccnc12"
label = "YES"

[[record]]
molecule = "C=C1C(=O)O[C@H]2[C@H](OC(C)=O)[C@@H](C)CCC/C(C)=C/CC[C@@]3(C)O[C@@H]3C[C@@H]12"
label = "YES"

[[record]]
molecule = "Cc1ccc(-n2cc(-c3ccc(Cl)cc3)c3c(N)ncnc32)cc1"
label = "YES"

[[record]]
molecule = "CCOC(=S)SCc1nc2ccccc2[nH]1"
label = "NO"

[[record]]
molecule = "CC(C)(C)NC1=NC(C(F)(F)F)(C(F)(F)F)NC(=O)N1"
label = "YES"

[[record]]
molecule = "CC(C)/C(Cl)=N\\OC(=O)Nc1ccc(S(N)(=O)=O)cc1"
label = "NO"

[[record]]
molecule = "COc1ccccc1NC(=O)CC(=O)N1N=C(C)C(N=Nc2ccc(C(=O)O)cc2)C1=O (stereo unspecified)"
label = "NO"


----------
Recorded growth inhibition, one value per entry.
test: NCI Yeast Anticancer Drug Screen. Data for the cln2 rad14 strain (AID 165);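 note: 0% = growth equal to vehicle treated cultures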; details: S. cerevisiae cln2 rad14 strain, at 50.0 µM (retest, dose inferred, filed as 5.0), active compounds read high
About 79,000 compounds went through this panel and 15% of them were active in at least one assay; those are over-represented in the sample as a whole.
measureName: growth inhibition (%)

[[record]]
compound = "CNc1ccc2c(c1)c1ccccc1n2C"
testvalue = -1

[[record]]
compound = "COc1ccc(C(=O)Oc2c(Br)cc(Br)cc2Br)cc1"
testvalue = -30

[[record]]
compound = "CCN(CC)CCNc1c(C)ccc2cccnc12"
testvalue = -14

[[record]]
compound = "CCCCCCCCCN(CCCCCCCCC)CC(O)c1cc2c(c3ccccc13)CCCC2 (centres undefined)"
testvalue = 90

[[record]]
compound = "Cc1c(N)cc(I)cc1[N+](=O)[O-]"
testvalue = -11

[[record]]
compound = "CCCCCCCNCCCCCC"
testvalue = 86

[[record]]
compound = "CC(C)(C)CC(C)(C)c1ccc(OCCSC(=N)N)cc1"
testvalue = 99

[[record]]
compound = "COc1ccc(CC[N+]2(C)COc3cc4oc(=O)cc(C)c4cc3C2)cc1OC (centres undefined)"
testvalue = 9

[[record]]
compound = "OC(CNc1ccnc2cc(Cl)ccc12)CNc1ccnc2cc(Cl)ccc12"
testvalue = 46

[[record]]
compound = "CCOC(=N)CCCSSc1ccc(N=[N+]=[N-])cc1"
testvalue = 97

[[record]]
compound = "C/C(=C\\c1ccccc1)c1ccncc1"
testvalue = 21

[[record]]
compound = "CCCOc1ccc(-c2nc(-c3ccc(N=Cc4ccc(N(CCOS(C)(=O)=O)CCOS(C)(=O)=O)cc4C)cc3)cs2)cc1"
testvalue = 53

[[record]]
compound = "CCC[CH2][Sn]([CH2]CCC)([O]C(=O)c1cccc(F)c1)[O]C(=O)c1cccc(F)c1"
testvalue = 10

[[record]]
compound = "O=S(=O)(O)c1ccc(O)c2cc(Nc3ccccc3)ccc12"
testvalue = -37

[[record]]
compound = "Nc1ccc2nc3c(nc2c1)C(=O)c1ccccc1-3"
testvalue = 90

[[record]]
compound = "O=C(Nc1ccccc1)Oc1c(Cl)c(Cl)c(Cl)c(Cl)c1Cl"
testvalue = 99

[[record]]
compound = "N#CC1Oc2ccccc2N1C(=O)c1ccccc1 (centres undefined)"
testvalue = 0

[[record]]
compound = "O=C(O)CCCCC1CCCCC1.[Cu+2]"
testvalue = 30

[[record]]
compound = "Cc1ccc(S(=O)(=O)N2CCN3C(=O)c4ccccc4C32c2ccc(F)cc2)cc1 (centres undefined)"
testvalue = 98

[[record]]
compound = "Cc1ccc(N)c(Cc2c(O)ccc3ccccc23)c1"
testvalue = 64

[[record]]
compound = "CN(C)c1ccc(/C=N/N=C(\\C#N)[S][Sn]([Cl])([c]2ccccc2)[c]2ccccc2)cc1"
testvalue = 89

[[record]]
compound = "Cc1ccc(O)c(C(c2cccc(C(c3cc(C)ccc3O)c3cc(C)ccc3O)c2)c2cc(C)ccc2O)c1"
testvalue = 96

[[record]]
compound = "O[C@H]1[C@H]2c3cc4c(cc3CN3CCC(=C[C@@H]1O)[C@H]23)OCO4"
testvalue = 98

[[record]]
compound = "CC(=O)Nc1ccc(-c2cnc3ccccc3c2)cc1"
testvalue = -6


----------
assay: NCI Yeast Anticancer Drug Screen. Data for the bub3 strain (AID 167); conditions: S. cerevisiae bub3 mutant strain, at 50.0 µM (retest, dose inferred, filed as 5.0), active compounds read high
Compounds without any hit were thinned out: in the full panel of roughly 79,000, 15% have a hit.
measureName: growth inhibition (%)

[[record]]
compound = "COC(=O)c1nc2ccc([N+](=O)[O-])cc2n1O"
testvalue = -80

[[record]]
compound = "COc1ccc2c(c1)[n+]([O-])c(-c1ccccc1)c(N)[n+]2[O-]"
testvalue = 99

[[record]]
compound = "O=C(O)CC1(C(=O)O)CCCCC1"
testvalue = -14

[[record]]
compound = "CCOC(=O)CCC(NC(=O)c1ccc(NC(OC)c2nc3cc(C(F)(F)F)ccc3nc2-c2ccccc2)cc1)C(=O)OCC (stereo not given)"
testvalue = 84

[[record]]
compound = "O=C(O)/C(=C/c1c(O)ccc2ccccc12)c1csc(-c2nc(/C(=C\\c3c(O)ccc4ccccc34)C(=O)O)cs2)n1"
testvalue = 49

[[record]]
compound = "CC1CN(CC(O)c2ccc(Br)cc2)CC(C)O1 (stereo not given)"
testvalue = 48

[[record]]
compound = "Cc1ccc(N=C=C(c2ccccc2)c2ccccc2)cc1"
testvalue = 58

[[record]]
compound = "Clc1cccc(N2CCN(c3c4c(nc5ccccc35)CCCCC4)CC2)c1"
testvalue = 93

[[record]]
compound = "CN(C)c1nc(NNS(=O)(=O)c2ccc(N)cc2)nc(N(C)C)n1"
testvalue = -8

[[record]]
compound = "O=[N+]([O-])c1ccc(-c2nc3ccc(F)cc3[nH]2)o1"
testvalue = 100


----------
assay: NCI Yeast Anticancer Drug Screen. Data for the rad50 strain (AID 155);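 note: 0% = growth of vehicle-only cultures of the same strain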; conditions: S. cerevisiae rad50 strain growth inhibition; at 50.0 µM (retest, dose inferred, filed as 5.0); active compounds read high
This is part of a sample that, as a whole, favours compounds with a hit. Of some 79,000 tested, about 15% had one in any assay.
measureName: growth inhibition (%)

[[record]]
compound = "O=C(Cn1cnc2ccc([N+](=O)[O-])cc21)N1CCN(c2ccccc2)CC1"
measurename = "growth inhibition"
measureunit = "%"
testvalue = -7

[[record]]
compound = "Cc1nc(N2N=C(c3ccc(Cl)cc3)CCC2=O)sc1[N+](=O)[O-]"
measurename = "growth inhibition"
measureunit = "%"
testvalue = 85

[[record]]
compound = "COc1ccc2nc3cc(Cl)ccc3c(Nc3ccc(O)c(CNCCO)c3)c2c1"
measurename = "growth inhibition"
measureunit = "%"
testvalue = 63

[[record]]
compound = "COc1ccc(/C=C(\\C#N)c2ccccc2)cc1OC"
measurename = "growth inhibition"
measureunit = "%"
testvalue = 55

[[record]]
compound = "C=Cc1ccc(B2NCCO2)cc1"
measurename = "growth inhibition"
measureunit = "%"
testvalue = 99

[[record]]
compound = "CC1CN(CC(O)c2ccc(Br)cc2)CC(C)O1 (stereo unspecified)"
measurename = "growth inhibition"
measureunit = "%"
testvalue = 30

[[record]]
compound = "CCCCCCCN(CCCCCCC)CC(O)c1ccc2ccc3ccccc3c2c1 (stereo unspecified)"
measurename = "growth inhibition"
measureunit = "%"
testvalue = 76

[[record]]
compound = "CS(=O)(=O)c1snc(N)c1C#N"
measurename = "growth inhibition"
measureunit = "%"
testvalue = 73

[[record]]
compound = "Cc1ccc(-c2c3c(cc4cc(C)ccc24)C(=O)OC3=O)cc1"
measurename = "growth inhibition"
measureunit = "%"
testvalue = 26

[[record]]
compound = "COc1ccc(CN=C(N)N)c2ccccc12"
measurename = "growth inhibition"
measureunit = "%"
testvalue = 7

[[record]]
compound = "CCOc1cc(/C=N/NC(=S)NC23CC4CC(CC(C4)C2)C3)ccc1O"
measurename = "growth inhibition"
measureunit = "%"
testvalue = 11

[[record]]
compound = "CC(=O)O/C=C\\COC(C)=O"
measurename = "growth inhibition"
measureunit = "%"
testvalue = 4

[[record]]
compound = "CCC(CCCN(CC)CCc1ccccc1)OC(=O)c1cc(OC)c(OC)c(OC)c1 (stereo unspecified)"
measurename = "growth inhibition"
measureunit = "%"
testvalue = 17

[[record]]
compound = "CC(=O)OCc1ccc(O)c2ncccc12"
measurename = "growth inhibition"
measureunit = "%"
testvalue = 74

[[record]]
compound = "CC(C)(Sc1cc(Cl)c(Cl)c(Cl)c1)C(=O)OCCN1CCOCC1"
measurename = "growth inhibition"
measureunit = "%"
testvalue = 98

[[record]]
compound = "Cc1cccc2c1C1OC(=O)C3CCC=C2C31 (stereo unspecified)"
measurename = "growth inhibition"
measureunit = "%"
testvalue = -134

[[record]]
compound = "CCOC(=O)C(=O)Nc1ccc(Cl)cc1Cl"
measurename = "growth inhibition"
measureunit = "%"
testvalue = -1

[[record]]
compound = "CCOC(=O)C(CCSC)C(=O)OCC"
measurename = "growth inhibition"
measureunit = "%"
testvalue = -2

[[record]]
compound = "CN(C)C(=O)c1ccc(SC(=S)NCc2ccccc2)cc1"
measurename = "growth inhibition"
measureunit = "%"
testvalue = 99

[[record]]
compound = "N=C(/C(=C/c1ccccc1)c1ccccc1)c1ccccc1"
measurename = "growth inhibition"
measureunit = "%"
testvalue = 78

[[record]]
compound = "CNC(Cc1ccccc1)c1ccc(OC)c2ccccc12 (stereo unspecified)"
measurename = "growth inhibition"
measureunit = "%"
testvalue = 9

[[record]]
compound = "CCCCCCCCC1CCNCC1"
measurename = "growth inhibition"
measureunit = "%"
testvalue = 28

[[record]]
compound = "CCCCCCCC/C=C\\CCCCCCCCN1CCOCC1"
measurename = "growth inhibition"
measureunit = "%"
testvalue = -2

[[record]]
compound = "O=C(O)c1ccc2c3c(ncnc13)-c1ccccc1C2=O"
measurename = "growth inhibition"
measureunit = "%"
testvalue = 96

[[record]]
compound = "Cc1ccc2nc(-[n+]3cc4ccccc4cc3C)ccc2c1"
measurename = "growth inhibition"
measureunit = "%"
testvalue = 99

[[record]]
compound = "COCC1C(=O)c2cc3c(cc2C12C=CC1(C=C2)OCCO1)OCO3 (stereo unspecified)"
measurename = "growth inhibition"
measureunit = "%"
testvalue = 7

